- System: K. pneumoniae NVT1001 strains with carbapenemase plasmids
- Method description: Etest MIC of β-lactams, OmpK35/36 loss, ΔramR and/or carbapenemase (Table 9)
- Type: cell-based, Klebsiella pneumoniae
- Measurement setup: Klebsiella pneumoniae, KPC-3 on pACYC177; ΔramR mutant
- Procedure: DNA fragments of the resistance genes along with their flanking regions were amplified from clinical plasmids via PCR with specific primer pairs. The resulting PCR fragments were digested and then cloned into the plasmid pACYC177 or pACYC184. The resulting plasmids were then transformed into K. pneumoniae strain NVT1001 via electroporation. […] The MICs of antibiotics were determined using the Etest (Biodisk AB, Sweden) according to the manufacturer's instructions. […]
Parameter: MIC (mg/L)
Provide only the numeric value, understood in mg/L.

Consider the reported MIC for these compounds:
| Compound | Parameter | Numeric value |
| --- | --- | --- |
| C[C@@H](O)[C@H]1C(=O)N2C(C(=O)O)=C(S[C@@H]3CN[C@H](CNS(N)(=O)=O)C3)[C@H](C)[C@H]12 | MIC | 16 |
| CO/N=C(\C(=O)N[C@@H]1C(=O)N2C(C(=O)[O-])=C(C[N+]3(C)CCCC3)CS[C@H]12)c1csc(N)n1 [Cefepime] | MIC | 128 |
| CCO/N=C(\C(=O)N[C@@H]1C(=O)N2C(C(=O)[O-])=C(Sc3nc(-c4cc[n+](C)cc4)cs3)CS[C@H]12)c1nsc(N)n1 | MIC | 256 |
| C[C@@H](O)[C@H]1C(=O)N2C(C(=O)O)=C(SCCN=CN)C[C@H]12 | MIC | 32 |
| C[C@@H](O)[C@H]1C(=O)N2C(C(=O)O)=C(S[C@@H]3CN[C@H](C(=O)Nc4cccc(C(=O)O)c4)C3)[C@H](C)[C@H]12 | MIC | 32 |
| CO[C@@]1(NC(=O)Cc2cccs2)C(=O)N2C(C(=O)O)=C(COC(N)=O)CS[C@@H]21 | MIC | 128 |
| CO/N=C(\C(=O)N[C@@H]1C(=O)N2C(C(=O)O)=C(COC(C)=O)CS[C@H]12)c1csc(N)n1 | MIC | 256 |

Please look at the following compound next.
Q: // fetch MIC given entry `C[C@@H](O)[C@H]1C(=O)N2C(C(=O)O)=C(S[C@@H]3CN[C@H](C(=O)N(C)C)C3)[C@H](C)[C@H]12`
Ans: 32
